Values were extracted from patent US20230293517A1.

biological target: human Adenosine A2b receptor (Homo sapiens (Human), UniProt P29275); experiment: Adenosine receptor TR-FRET binding assay (A2b)
Sequence (P29275 whole entry): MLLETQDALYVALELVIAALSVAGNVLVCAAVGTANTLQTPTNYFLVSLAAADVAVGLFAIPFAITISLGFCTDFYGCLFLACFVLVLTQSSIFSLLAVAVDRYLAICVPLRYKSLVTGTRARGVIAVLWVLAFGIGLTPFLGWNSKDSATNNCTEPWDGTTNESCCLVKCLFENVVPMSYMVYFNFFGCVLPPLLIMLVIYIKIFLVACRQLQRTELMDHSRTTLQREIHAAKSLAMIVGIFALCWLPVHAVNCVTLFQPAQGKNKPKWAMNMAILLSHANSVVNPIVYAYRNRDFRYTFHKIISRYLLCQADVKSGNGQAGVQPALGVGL
Below, each entry is listed with its recorded Ki.
Give a bare numeral; the unit nM is implied.

>>> df
                                   compound  quantity_kind  uom  number
0  Cc1cc(-c2sc(NC(=O)N3C[C@@H]4NCCO[C@H]4C3)nc2-c2cccc(C#N)c2)cc(C)n1 (racemic) [Example 14.3]             Ki   nM     7.6
1  Cc1cc(-c2sc(NC(=O)N3C[C@@H]4NCCO[C@@H]4C3)nc2-c2cccc(C#N)c2)cc(C(F)F)n1 (racemic) [Example 14.2]             Ki   nM     8.3
2  Cc1cc(-c2sc(NC(=O)N3C[C@@H]4OCCN(C)[C@@H]4C3)nc2-c2cccc(C#N)c2)cc(C)n1 (racemic) [Example 6.98]             Ki   nM       7
3  Cc1cc(-c2sc(NC(=O)N3CC[C@@H](S(C)(=O)=O)C3)nc2-c2cccc(C#N)c2)cc(C)n1 [Example 6.9]             Ki   nM     0.7
4  Cc1cc(-c2sc(NC(=O)N3C[C@H]4OCCN(C)[C@H]4C3)nc2-c2cccc(C#N)c2)cc(C(F)F)n1 (racemic) [Example 6.106]             Ki   nM     4.5

Attention now shifts to the item below.
So what does the record say about Ki for Cc1cc(-c2sc(NC(=O)N3C[C@@H]4NCCO[C@H]4C3)nc2-c2cccc(C#N)c2)cc(C(F)F)n1 (racemic) [Example 14.1] ?
8.6

====

Below, each entry is listed with its recorded pIC50.
tested on: human PBMCs; assay: CD3/CD28 stimulated IL-2 release NECA reversal assay in human PBMCs; type: cell-based; settings: PBMC, 1 uM NECA, 24 hours, IL-2 in culture supernatant
Here pIC50 is given on a logarithmic scale as minus log10 of the concentration in mol/L.

Worked examples follow.
>>> df
                                   compound  target_or_test_system  quantity_kind  number
0  Cc1cc(-c2sc(NC(=O)N3CCC(C#N)CC3)nc2-c2cccc(C#N)c2)cc(C)n1 [Example 4.1]            human PBMCs          pIC50    9.52
1  Cc1cc(-c2sc(NC(=O)N3CC4(COC4)C3)nc2-c2cccc(C#N)c2C)cc(C)n1 [Example 6.79]            human PBMCs          pIC50    7.84
2  Cc1cc(-c2sc(NC(=O)N3CC4(C3)CC(C)(O)C4)nc2-c2cccc(C#N)c2)cc(C)n1 [Example 6.44]            human PBMCs          pIC50    8.51

Attention now shifts to the item below.
So what does the record say about pIC50 for Cc1cc(-c2sc(NC(=O)N3CC[C@H](C(C)(C)O)C3)nc2-c2cccc(C#N)c2)cc(C)n1 [Example 6.48] ?
8.43

====

target: human Adenosine A2a receptor (Homo sapiens (Human))
Sequence (P29274 whole entry): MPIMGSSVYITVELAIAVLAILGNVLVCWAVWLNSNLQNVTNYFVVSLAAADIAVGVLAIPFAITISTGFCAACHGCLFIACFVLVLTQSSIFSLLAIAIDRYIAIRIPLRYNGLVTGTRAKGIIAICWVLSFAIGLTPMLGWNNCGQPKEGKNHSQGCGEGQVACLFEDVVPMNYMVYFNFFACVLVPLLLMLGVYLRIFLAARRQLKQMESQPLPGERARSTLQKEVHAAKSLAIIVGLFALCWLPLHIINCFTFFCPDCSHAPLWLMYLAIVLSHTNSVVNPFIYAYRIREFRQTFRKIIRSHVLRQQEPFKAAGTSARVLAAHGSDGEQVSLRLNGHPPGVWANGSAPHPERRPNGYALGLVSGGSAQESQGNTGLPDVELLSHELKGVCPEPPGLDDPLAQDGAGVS
Response field label: string, one of y (Ki strictly below 0.4 nM) or n.

Worked set:
>>> print(df.to_string())
                                   compound  label_value
0  Cc1cc(-c2sc(NC(=O)N3CCC(C(N)=O)CC3)nc2-c2cccc(C#N)c2)cc(C)n1 [Example 4.29]            y
1  Cc1cc(-c2sc(NC(=O)N3CCN[C@H](C(C)(C)O)C3)nc2-c2cccc(C#N)c2)cc(Cl)n1 [Example 3.9]            n

A record lists Cc1cc(-c2sc(NC(=O)N3CC[C@@](C)(C#N)C3)nc2-c2cccc(C#N)c2)cc(C)n1 [Example 27a] . Is its Ki below 0.4 nM?
n

Another compound to look at: Cc1cc(-c2sc(NC(=O)N3CC[C@@H](C(N)=O)C3)nc2-c2cccc(C#N)c2)cc(C)n1 [Example 6.8]
n

Another compound to look at: Cc1cc(-c2sc(NC(=O)N3CC4(COC4)C3)nc2-c2cccc(C#N)c2)cc(C2COC2)n1 [Example 16.4]
y

Another compound to look at: Cc1cc(-c2sc(NC(=O)N3CCOC(C(C)(C)O)C3)nc2-c2cccc(C#N)c2)cc(C)n1 (stereo not shown) [Example 6.47]
y

====

tested on: human PBMCs; test: CD3/CD28 stimulated IL-2 release NECA reversal assay in human PBMCs; type: cell-based; conditions: PBMC, 1 uM NECA, 24 hours, IL-2 in culture supernatant
Use IC50 to assign classes; range list: low = under 3 nM, mid = from 3 nM up to 6 nM, high = 6 nM and over

>>> print(df.to_string())
                                   compound  label_value
0  Cc1cc(-c2sc(NC(=O)N3CCC(C(C)(C)O)C3)nc2-c2cccc(C#N)c2)cc(Cl)n1 (stereo not drawn) [Example 2]          low
1  Cc1cc(-c2sc(NC(=O)N3CCC4(CC3)NC(=O)N(C)C4=O)nc2-c2cccc(C#N)c2)cc(C)n1 [Example 6.6]         high
2  Cc1cc(-c2sc(NC(=O)N3CCC4(CC3)C(=O)N(C)C(=O)N4C)nc2-c2cccc(C#N)c2)cc(C)n1 [Example 4.28]          mid
3  Cc1cc(-c2sc(NC(=O)N3CCN(C)CC3)nc2-c2cccc(C#N)c2)cc(C)n1 [Example 4]          mid

Consider now this further compound.
Classify this compound: Cc1cc(-c2sc(NC(=O)N3CCS(=N)(=O)CC3)nc2-c2cccc(C#N)c2)cc(Cl)n1 [Example 3.12]
high

====

test system: human PBMCs; experiment: CD3/CD28 stimulated IL-2 release NECA reversal assay in human PBMCs; format: cell-based; details: PBMC, 1 uM NECA, 24 hours, IL-2 in culture supernatant
Response field label: string, one of T (IC50 strictly below 2 nM) or F.

Worked set:
In [3]: df
Out[3]:
                                   compound  label_value
0  Cc1cc(-c2sc(NC(=O)N3CCOC(C(C)(C)O)C3)nc2-c2cccc(C#N)c2)cc(C)n1 (stereo not shown)            T
1  Cc1cc(-c2sc(NC(=O)N3CCC(C)(C#N)CC3)nc2-c2cccc(C#N)c2)cc(CO)n1            T

A record lists `Cc1cc(-c2sc(NC(=O)N3CCC(C#N)(C#N)CC3)nc2-c2cccc(C#N)c2)cc(C)n1` . Is its IC50 below 2 nM?
T

Another compound to look at: `Cc1cc(-c2sc(NC(=O)N3CCC4(CC3)CNC(=O)O4)nc2-c2cccc(C#N)c2)cc(C)n1`
F

Another compound to look at: `Cc1cc(-c2sc(NC(=O)N3CCN(S(N)(=O)=O)CC3)nc2-c2cccc(C#N)c2)cc(C)n1`
F

Another compound to look at: `Cc1cc(-c2sc(NC(=O)N3CCOC[C@H]3C)nc2-c2cccc(C#N)c2)cc(C)n1`
F

Another compound to look at: `Cc1cc(-c2sc(NC(=O)N3CC[S+]([O-])CC3)nc2-c2cccc(C#N)c2)c(F)c(C)n1`
F

====

biological target: human Adenosine A3 receptor (Homo sapiens (Human), UniProt P0DMS8); assay: Adenosine receptor TR-FRET binding assay (A3); settings: inhibition of binding of 100 nM CA200645, CHO cell membranes
Sequence (P0DMS8 whole entry): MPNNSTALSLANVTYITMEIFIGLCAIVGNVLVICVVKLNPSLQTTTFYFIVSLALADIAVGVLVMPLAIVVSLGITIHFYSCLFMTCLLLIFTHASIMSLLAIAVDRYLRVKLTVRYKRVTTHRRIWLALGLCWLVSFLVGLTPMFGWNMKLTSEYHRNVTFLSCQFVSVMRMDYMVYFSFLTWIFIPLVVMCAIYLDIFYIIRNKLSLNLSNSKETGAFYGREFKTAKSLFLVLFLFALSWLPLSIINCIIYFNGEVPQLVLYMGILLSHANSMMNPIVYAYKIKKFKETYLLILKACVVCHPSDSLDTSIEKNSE
quantity_kind: Ki

                                   molecule  result
0  Cc1cc(-c2sc(NC(=O)N3CCC4(CC3)C(=O)N(C)C(=O)N4C)nc2-c2cccc(C#N)c2)cc(CO)n1  699 nM

So what does the record say about Ki for `Cc1cc(-c2sc(NC(=O)N3CCNC[C@H]3C)nc2-c2cccc(C#N)c2)cc(C)n1` ?
41 nM

Another molecule to look at: `Cc1cc(-c2sc(NC(=O)N3CCC(C)(O)CC3)nc2-c2cccc(C#N)c2)cc(Cl)n1`
382 nM

Another molecule to look at: `Cc1cc(-c2sc(NC(=O)N3CC(CO)C3)nc2-c2cccc(C#N)c2)cc(C)n1`
120 nM

Another molecule to look at: Cc1cc(-c2sc(NC(=O)N3CC[C@@](C)(C#N)C3)nc2-c2cccc(C#N)c2)cc(C)n1 [Example 27a]
313 nM

Another molecule to look at: `Cc1cc(-c2sc(NC(=O)N3CC4(COC4)C3)nc2-c2cccc(C#N)c2)cc(C2CC2)n1`
478 nM

Another molecule to look at: Cc1cc(-c2sc(NC(=O)N3CCC4(CN(C)CCO4)C3)nc2-c2cccc(C#N)c2)cc(C(F)F)n1 (stereo not shown)
156 nM
